Ref: PubChem BioAssay

- System: Noggin (protein binding on small-molecule microarray)
- procedure.details: Noggin binders on small-molecule microarray, primary screen, biochemical, 635/667 nm fluorescence (AID 1095);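 note: score merges 667 nm feature fluorescence with signal to noise over triplicate slides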
- experimental.parameters: 635 nm fluorescence, higher = more signal
I would appreciate it if you labelled entries Condition met when composite z-score is 0.5 or higher, otherwise Condition not met.

# input Confirm if composite z-score reported for the compound C=CCC(OC(C)=O)[C@@H]1[C@@H](N(Cc2cc3ccccc3o2)C(=O)c2ccc(-c3ccccc3)cc2)c2cc(OCCCO)ccc2N1C(=O)Cc1ccc(OC)cc1 (stereo partly specified) is 0.5 or above.
# output Condition not met

# input Confirm if composite z-score reported for the compound `O=C1[C@@H]2[C@@H](CC(COc3ccccc3)=C3[C@@H](CCc4ccccc4)OB(O)C[C@@H]32)C(=O)N1Cc1ccccc1` is 0.5 or above.
# output Condition not met

# input Confirm if composite z-score reported for the compound `COCCCNC(=O)[C@@]1(Sc2ccc(C)cc2)CC(=O)N(C(C)C)[C@@H]1c1ccc(CO)cc1I` is 0.5 or above.
# output Condition not met

# input Confirm if composite z-score reported for the compound `COc1ccc(C#Cc2ccc3c(c2)[C@]2(C(=O)N3)[C@H](C(=O)N3CCCCCCC3)[C@H]3C(=O)O[C@H](c4ccccc4)[C@H](c4ccccc4)N3[C@@H]2c2ccc(O)cc2)cc1` is 0.5 or above.
# output Condition met

# input Confirm if composite z-score reported for the compound `NCCCCCNC(=O)[C@H]1C[C@H]2C(=O)N[C@@H](Cc3ccccc3)C(=O)N2[C@H]1c1ccc(O)cc1` is 0.5 or above.
# output Condition met

# input Confirm if composite z-score reported for the compound `[N-]=[N+]=NCc1ccccc1[C@H]1OC(c2ccc(OCCCO)cc2)=N[C@@]1(CCS(=O)(=O)c1ccccc1)C(=O)NCc1ccccc1` is 0.5 or above.
# output Condition met

---

- procedure.details: small-molecule microarray binders of probe aCHRDL2, primary screen, biochemical, biotinylated probe, 635/667 nm fluorescence (AID 1100)
- experimental.parameters: higher = more signal
measured.endpoint: composite z-score
Just the number.

# input Given C=CCC(OC(C)=O)[C@@H]1[C@@H](N(Cc2cccc3ccccc23)C(=O)c2cccc3ccccc23)c2cc(OCCCO)ccc2N1C(=O)c1ccc2ccccc2c1 (stereo partly specified) , state its recorded composite z-score.
# output 0.0611

# input Given CCN(CC)c1ccc(N2CC=CC34O[C@@H]5/C=C\CCC(C)OC(=O)C5[C@H]3C(=O)N(C(C)CO)[C@@H]4C2=O)cc1 (stereo partly specified) , state its recorded composite z-score.
# output -0.514

# input Given C=CCC(OC(C)=O)[C@@H]1[C@@H](N(Cc2cc3ccccc3o2)C(=O)c2ccc(-c3ccccc3)cc2)c2cc(OCCCO)ccc2N1C(=O)Cc1ccc(OC)cc1 (stereo partly specified) , state its recorded composite z-score.
# output 0.0935

# input Given C=CCC(OC(C)=O)[C@@H]1[C@@H](N(Cc2ccc(-c3ccccc3)cc2)C(=O)c2ccc(C)cc2)c2cc(OCCCO)ccc2N1C(=O)Cc1ccc2ccccc2c1 (stereo partly specified) , state its recorded composite z-score.
# output 0.0333

# input Given `COC(=O)[C@@]1(Cc2ccccc2CN=[N+]=[N-])N=C(c2ccc(OCCCO)cc2)O[C@H]1c1ccccc1CN=[N+]=[N-]` , state its recorded composite z-score.
# output 1.02

# input Given `C=C[C@@H](OC)[C@H](OC(=O)Nc1ccc(SC)cc1)c1ccc(OCCO)cc1` , state its recorded composite z-score.
# output 0.527

---

- Tested on: Inhibin beta A chain (activin A)
- procedure.details: INHBA (activin A) binders on microarrays, primary screen, biochemical, small-molecule microarray, 635 nm fluorescence scan (AID 1107);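 note: mouse activin A protein probed at 4.33 µg/mL on printed slides; score merges bound-protein fluorescence near 667 nm with spot signal-to-noise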
- experimental.parameters: small-molecule microarray binding, higher = more signal
measured.endpoint: composite z-score
Just the number.

# input Given `CCOC(=O)C=Cc1cc(F)ccc1O` , state its recorded composite z-score.
# output 0.835

# input Given `CCOC(=O)C[C@H]1[C@H](OC(=O)c2ccccc2-c2ccccc2)[C@@H](NC(=O)c2ccc3ccccc3n2)c2cc(OCCCO)ccc2N1C(=O)c1ccccc1` , state its recorded composite z-score.
# output 0.0428

# input Given CC(C)C(CO)N1C(=O)[C@@H]2[C@H]3C(=O)OCC=C[C@H]3OC23C=CCN(C(C)(C)C)C(=O)[C@@H]13 (stereo partly drawn) , state its recorded composite z-score.
# output 0.83

---

- procedure.details: mitochondrial membrane potential change in A549 cells, profiling panel, cell-based, JC-1 fluorescence, basal, 24 h, 100 nL (AID 1138);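 note: A549 lung adenocarcinoma cells under basal conditions with no added stimulus; test concentration not given here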
- experimental.parameters: higher = more signal
I would appreciate it if you labelled entries rule met when z-score is 0.3 or higher, otherwise rule not met.

# input Confirm if z-score reported for the compound `C=C(COC)C(=O)CC[C@@H](OC(=O)c1cccnc1)c1ccccc1OCCO` is 0.3 or above.
# output rule not met

# input Confirm if z-score reported for the compound C=C(C)C1CCC(C(O)C2C=CC3C(=O)N(C)C(=O)C3N2Nc2cc(OC)c(OC)c(OC)c2)CC1 (stereo not given) is 0.3 or above.
# output rule met

# input Confirm if z-score reported for the compound COC(=O)C1=CC(CCCO)=CC(c2ccc(CN3CCCC3)cc2)N(Cc2cc3c(cc2Br)OCO3)C=C1C(=O)OC (stereo not given) is 0.3 or above.
# output rule not met

# input Confirm if z-score reported for the compound `NCCCCCNC(=O)[C@@H]1C[C@@H]2C(=O)N3CCC[C@H]3C(=O)N2[C@@H]1c1ccc(O)cc1` is 0.3 or above.
# output rule met

# input Confirm if z-score reported for the compound `CN(C)CCCC[C@@H]1NC(=O)[C@@H]2C[C@H](C(=O)O)[C@H](c3cccc(OCCO)c3)N2C1=O` is 0.3 or above.
# output rule not met

# input Confirm if z-score reported for the compound `COc1ccc(C(=O)Nc2cccc(CN3C(=O)[C@@]4(O[C@@H](CC(=O)N(CCO)Cc5ccccc5)[C@H]([Si](C)(C)c5ccc(OC)cc5)[C@H]4C)c4ccccc43)c2)cc1` is 0.3 or above.
# output rule not met

# input Confirm if z-score reported for the compound `[N-]=[N+]=NCc1ccccc1C[C@@]1(C(=O)N2CCCCC2)N=C(c2ccc(OCCCO)cc2)O[C@@H]1c1ccccc1CN=[N+]=[N-]` is 0.3 or above.
# output rule met

# input Confirm if z-score reported for the compound `Cc1cccc([C@H]2C[C@H]3C(Br)=C[C@@H]2C(=O)[C@]32CO2)c1` is 0.3 or above.
# output rule met

# input Confirm if z-score reported for the compound `COC(=O)[C@@]1(Cc2ccc(OC)cc2)[C@H]2c3cc(C(=O)N4CCCC4)n(Cc4ccc(OC(F)(F)F)cc4)c3C[C@H]2CN1C(=O)c1ccccc1` is 0.3 or above.
# output rule met

# input Confirm if z-score reported for the compound `COCCCNC(=O)[C@@]1(c2ccc([N+](=O)[O-])cc2)CC(=O)N(CC23CC4CC(CC(C4)C2)C3)[C@@H]1c1ccc(CO)cc1I` is 0.3 or above.
# output rule not met

# input Confirm if z-score reported for the compound `CN(C)C(=O)[C@]1(CCS(=O)(=O)c2ccccc2)N=C(c2ccc(OCCCO)cc2)O[C@@H]1c1ccccc1` is 0.3 or above.
# output rule not met

# input Confirm if z-score reported for the compound `CCOC(=O)C[C@H]1[C@H](OC(=O)c2cc3ccccc3oc2=O)[C@@H](NC(=O)c2ccc3ccccc3c2)c2cc(OCCCO)ccc2N1C(=O)Cc1ccc(OC)cc1` is 0.3 or above.
# output rule not met

# input Confirm if z-score reported for the compound COc1cc(NN2C(C(O)c3cc(OC)c(OC)c(OC)c3)C=CC3C(=O)N(c4ccccc4)C(=O)C32)cc(OC)c1OC (stereo not given) is 0.3 or above.
# output rule not met

# input Confirm if z-score reported for the compound Cc1ccc(C(C)CC(O)C2C=CC3C(=O)N(c4ccccc4)C(=O)C3N2Nc2ccc(C#N)cc2)o1 (stereo not given) is 0.3 or above.
# output rule not met

# input Confirm if z-score reported for the compound CC(CO)N1C(=O)[C@@H]2[C@H]3C(=O)OCC=C[C@H]3OC23C=CCN(c2ccc(Cl)cc2)C(=O)[C@@H]13 (stereo not given in full) is 0.3 or above.
# output rule met

# input Confirm if z-score reported for the compound `CCOC(=O)C1=C[C@@H](C(C)(C)C)N(S(=O)(=O)c2ccc(C)cc2)[C@H]1c1ccc(C)cc1` is 0.3 or above.
# output rule met

# input Confirm if z-score reported for the compound COc1cc2c(cc1O)C(c1ccc(CN3CCCC3)cc1)N(C)CC2 (stereo not given) is 0.3 or above.
# output rule met

# input Confirm if z-score reported for the compound `[N-]=[N+]=NCc1ccccc1[C@H]1OC(c2ccc(OCCCO)cc2)=N[C@@]1(CCS(=O)(=O)c1ccccc1)C(=O)NCc1ccccc1` is 0.3 or above.
# output rule met

# input Confirm if z-score reported for the compound `[N-]=[N+]=NCc1ccccc1[C@@H]1OC(c2ccc(OCCCO)cc2)=N[C@]1(Cc1ccccc1N=[N+]=[N-])C(=O)NCCN1CCOCC1` is 0.3 or above.
# output rule met

# input Confirm if z-score reported for the compound `Cc1ccc(N2C(=O)c3ccccc3[C@](C)(C(=O)NCc3ccccc3)[C@@H]2c2ccc(CO)cc2)nc1` is 0.3 or above.
# output rule not met
